experiment: Pharmacokinetics in infected vervet monkeys (first stage HAT); type: in vivo, vervet monkey; details: monkey, plasma, po, 10 mg/kg, oral DB868 10 mg/kg group; infected; read-out: median Tmax (converted)

>  <Smiles entry>
N=C(N)c1ccc(-c2ccc(-c3ccc(C(=N)N)cn3)o2)nc1

>  <Tmax>
24 h

$$$$

---

assay: Pharmacokinetics in infected vervet monkeys (first stage HAT); assay type: in vivo, vervet monkey; details: monkey, plasma, po, 20 mg/kg/day, after final oral dose of DB868 20 mg/kg×5 days; infected; individual monkeys; read-out: Tmax (converted)
Quantity kind: Tmax (h)

>  <Smiles entry>
N=C(N)c1ccc(-c2ccc(-c3ccc(C(=N)N)cn3)o2)nc1

>  <Quantity kind>
Tmax

>  <Reported>
4.08

$$$$

---

assay: Pharmacokinetics in infected vervet monkeys (first stage HAT); format: in vivo, vervet monkey; conditions: monkey, plasma, po, 3 mg/kg, oral DB868 3 mg/kg group; infected; read-out: median Tmax (converted)

>  <Molecule>
N=C(N)c1ccc(-c2ccc(-c3ccc(C(=N)N)cn3)o2)nc1 [DB829, 2,5-bis(5-amidino-2-pyridyl)furan]

>  <Tmax>
4 h

$$$$

---

test: Pharmacokinetics in uninfected vervet monkeys; settings: both, monkey, in vivo, po, 10 mg/kg/day, geometric mean terminal elimination half-life, oral DB868 10 mg/kg/day×10 days; uninfected (second of 'respectively'; agrees with Table 1)

>  <Compound>
N=C(N)c1ccc(-c2ccc(-c3ccc(C(=N)N)cn3)o2)nc1 [DB829, 2,5-bis(5-amidino-2-pyridyl)furan]

>  <half-life, days>
31

$$$$

---

assay: Pharmacokinetics in infected vervet monkeys (first stage HAT); assay type: in vivo, vervet monkey; details: after final oral dose of DB868 10 mg/kg×7 days; first stage HAT; individual monkeys 675, 691; read-out: Cmax

>  <Compound>
N=C(N)c1ccc(-c2ccc(-c3ccc(C(=N)N)cn3)o2)nc1 [DB829, 2,5-bis(5-amidino-2-pyridyl)furan]

>  <Unit abbreviation>
nM

>  <Cmax>
200

$$$$

---

assay: Pharmacokinetics in infected vervet monkeys (first stage HAT); assay type: in vivo, vervet monkey; conditions: monkey, plasma, po, prodrug in plasma post-LDD, all oral DB868 regimens; infected; 0.04 days = 1 h; read-out: Tmax (majority, 4/6 monkeys) (converted)

>  <Smiles entry>
CONC(=N)c1ccc(-c2ccc(-c3ccc(C(=N)NOC)cn3)o2)nc1

>  <Unit abbreviation>
min

>  <Tmax>
57.6

$$$$

---

test: Pharmacokinetics in uninfected vervet monkeys; conditions: both, monkey, plasma, po, 10 mg/kg, C24 h, plasma, 24 h after final oral dose of DB868 10 mg/kg×10 days; uninfected; individual monkeys; BLQ = below limit of quantitation
Quantity kind: concentration at 24 h (nM)

>  <Compound>
CONC(=N)c1ccc(-c2ccc(-c3ccc(C(=N)NOC)cn3)o2)nc1 [DB868]

>  <Quantity kind>
concentration at 24 h

>  <Reported>
6

$$$$

---

experiment: Pharmacokinetics in uninfected vervet monkeys; conditions: both, monkey, plasma, po, 10 mg/kg/day, geometric mean C4 h, oral DB868 10 mg/kg/day×10 days; uninfected, n = 4
Quantity kind: concentration at 4 h (nM)

>  <Smiles entry>
CONC(=N)c1ccc(-c2ccc(-c3ccc(C(=N)NOC)cn3)o2)nc1

>  <Quantity kind>
concentration at 4 h

>  <Reported>
89

$$$$

---

test: Pharmacokinetics in infected vervet monkeys (first stage HAT); assay type: in vivo, vervet monkey; settings: monkey, plasma, po, 10 mg/kg/day, oral DB868 10 mg/kg×7 days; infected; monkey 691; read-out: t1/2 (terminal elimination half-life) (converted)
Quantity kind: half-life (days)

>  <Smiles entry>
N=C(N)c1ccc(-c2ccc(-c3ccc(C(=N)N)cn3)o2)nc1

>  <Quantity kind>
half-life

>  <Unit abbreviation>
days

>  <Reported>
25

$$$$

---

experiment: Pharmacokinetics in infected vervet monkeys (first stage HAT); type: in vivo, vervet monkey; details: monkey, plasma, po, 3 mg/kg/day, oral DB868 3 mg/kg/day×7 days; infected; read-out: median Cmax

>  <Compound>
N=C(N)c1ccc(-c2ccc(-c3ccc(C(=N)N)cn3)o2)nc1 [DB829, 2,5-bis(5-amidino-2-pyridyl)furan]

>  <Unit abbreviation>
nM

>  <Cmax>
170

$$$$

---

assay: Pharmacokinetics in infected vervet monkeys (first stage HAT); type: in vivo, vervet monkey; conditions: monkey, plasma, po, 20 mg/kg/day, oral DB868 20 mg/kg/day×5 days; infected; read-out: median Cmax
Quantity kind: Cmax (nM)

>  <Smiles entry>
N=C(N)c1ccc(-c2ccc(-c3ccc(C(=N)N)cn3)o2)nc1

>  <Reported>
435

$$$$

---

experiment: Pharmacokinetics in infected vervet monkeys (first stage HAT); format: in vivo, vervet monkey; conditions: monkey, plasma, po, 20 mg/kg/day, after final oral dose of DB868 20 mg/kg×5 days; first stage HAT; individual monkeys 585, 658; read-out: Cmax

>  <Smiles entry>
N=C(N)c1ccc(-c2ccc(-c3ccc(C(=N)N)cn3)o2)nc1

>  <Unit abbreviation>
nM

>  <Cmax>
370

$$$$

---

experiment: Pharmacokinetics in uninfected vervet monkeys; conditions: both, monkey, in vivo, 30 mg/kg, C4 h, plasma concentration at 4 h after final (10th) oral dose of DB868 30 mg/kg×10 days; uninfected; individual monkeys 546, 567, 668, 679

>  <Compound>
N=C(N)c1ccc(-c2ccc(-c3ccc(C(=N)N)cn3)o2)nc1 [DB829, 2,5-bis(5-amidino-2-pyridyl)furan]

>  <concentration at 4 h [nM]>
440

$$$$

---

experiment: Pharmacokinetics in uninfected vervet monkeys; details: both, monkey, in vivo, po, 30 mg/kg/day, geometric mean terminal elimination half-life, oral DB868 30 mg/kg/day×10 days; uninfected (first of 'respectively'; agrees with Table 1)
Quantity kind: half-life (days)

>  <Smiles entry>
N=C(N)c1ccc(-c2ccc(-c3ccc(C(=N)N)cn3)o2)nc1

>  <Reported>
29

$$$$

---

test: Pharmacokinetics in uninfected vervet monkeys; details: both, monkey, in vivo, 30 mg/kg, C24 h, plasma, 24 h after final oral dose of DB868 30 mg/kg×10 days; uninfected; individual monkeys
Quantity kind: concentration at 24 h (nM)

>  <Compound>
N=C(N)c1ccc(-c2ccc(-c3ccc(C(=N)N)cn3)o2)nc1 [DB829, 2,5-bis(5-amidino-2-pyridyl)furan]

>  <Quantity kind>
concentration at 24 h

>  <Reported>
360

$$$$

# credit: paper PMC3674995
